biological target: Prothrombin (Homo sapiens)
pKi: −log10 of the molar value.
measurement.name: pKi

What pKi value was documented for this compound, Cc1cc(C(=O)NCc2cc(Cl)ccc2-n2cncn2)cc(C(=O)N(CC(C)C)CC(C)C)c1 ?
8.15

What pKi value was documented for this compound, Cc1cc(C(=O)NCc2cc(Cl)ccc2-n2cnnn2)cc(C2CNCCC2CC(C)C)c1 (configuration not stated) ?
8.74

(I) COC(=O)COc1ccc(Cl)cc1CCOc1cc(C)cc(C(=O)N(CC(C)C)CC(C)C)c1
(II) CC(=O)c1ccncc1-c1cc(C)cc(C(=O)NCc2cc(Cl)ccc2-n2cnnn2)c1
Parameter metric = pKi. Return the lower-valued option from I and II . Kindly state the label of the option you pick.
II
(II: 7.07, I: 9.14)

----------
experiment: Inhibition of trypsin
measurement.name: Ki (µM)

What Ki value was documented for this compound, Cc1cc(OCCc2cc(Cl)ccc2-n2cncn2)cc(C(=O)N(CC(C)C)CC(C)C)c1 ?
28

(1) Cc1cc(C(=O)NCc2cc(Cl)ccc2-n2cnnn2)cc(C(=O)N(CC(C)C)CC(C)C)c1
(2) Cc1cc(C(=O)NCc2cc(Cl)ccc2-n2cnnn2)cc(-c2cnccc2N(C)C)c1
Between these two entries, 1 and 2 , state which has the higher Ki. Kindly state the label of the option you pick.
2

----------
assay: Inhibition of trypsin
pKi: −log10 of the molar value.
measurement.name: pKi

What pKi value was documented for this molecule, Cc1cc(C(=O)NCc2cc(Cl)ccc2-n2cnnn2)cc(-c2c[n+]([O-])ccc2C(C)C)c1 ?
3.32

What pKi value was documented for this molecule, Cc1cc(C(=O)NCc2cc(Cl)ccc2-n2cnnn2)cc(N(CCN)C2CCCCC2)c1 ?
4.12

What pKi value was documented for this molecule, Cc1cc(C(=O)NCc2cc(Cl)ccc2-n2cnnn2)cc(C2CNCCC2CC(C)C)c1 (centres undefined) ?
3.56

(1) Cc1cc(OCCc2ccccc2CN)cc(C(=O)N(CC(C)C)CC(C)C)c1
(2) Cc1cc(C(=O)NCc2cc(Cl)ccc2CN)cc(C(=O)N(CC(C)C)CC(C)C)c1
Between these two entries, 1 and 2 , state which has the higher pKi. Kindly state the label of the option you pick.
1

(a) Cc1cc(OCCc2nc[nH]c2C)cc(C(=O)N(CC(C)C)CC(C)C)c1
(b) Cc1cc(OCCc2cc(Cl)ccc2OCC(=O)NC2CCCNC2)cc(C(=O)N(CC(C)C)CC(C)C)c1 (centres undefined)
Between these two entries, a and b , state which has the higher pKi. Kindly state the label of the option you pick.
a

----------
Observed Ki values for Prothrombin (Homo sapiens, UniProt P00734) are listed in what follows.
measurement.name: Ki (nM)

What Ki value was documented for this compound, Cc1cc(C(=O)NCc2cc(Cl)ccc2-n2cnnn2)cc(N(CCN)C2CCCCC2)c1 ?
1.6

(A) Cc1cc(OCCc2cc(Cl)ccc2OCC(=O)NC2CCCNC2)cc(C(=O)N(CC(C)C)CC(C)C)c1 (stereo not drawn)
(B) Cc1cc(C(=O)NCc2cc(Cl)ccc2-n2cnnn2)cc(-c2c[n+]([O-])ccc2C(C)C)c1
Parameter metric = Ki. Return the lower-valued option from A and B . Kindly state the label of the option you pick.
B
